Quick reference: GI50 of the listed items.
Test system: LOX IMVI
Test: NCI tumour cell line growth inhibition, 48 h
Active and inactive are the calls of the source. No stated cut-off is given here; in the data, active = GI50 up to about 1.1 µM and inactive = higher.

CC(=O)OC(C)(C)[C@@H]1CC[C@]2(C)/C=C/[C@H](C)C[C@@H](O)C3=C(C)C[C@@H](O3)C12 (some centres undefined)    > 100 µM (inactive)

compound COC(=O)[C@H](Cc1ccccc1)NP(=O)(OCCC#N)OCC1OC(n2cc(C)c(=O)[nH]c2=O)CC1N=[N+]=[N-] (some centres undefined) , GI50 observed: > 100 µM (inactive)

compound "O=C(OCc1ccccc1[N+](=O)[O-])N1c2ccccc2[C@@]23O[C@]24CCC[C@H]3C#C/C=C\C#C[C@H]14" , GI50 observed: 6.73 µM (inactive)

compound CC(Oc1ccc(Cl)cc1Cl)C(=O)NN1C(=O)CSC1c1ccccc1 (centres undefined) , GI50 observed: 69 µM (inactive)

compound "CN(C(=O)c1cccs1)C(=S)N1CCN(c2ccccn2)CC1" , GI50 observed: > 100 µM (inactive)

compound COc1ccc(/N=N/c2c(C)c(C#N)c(=S)n(C3OC(COC(C)=O)C(OC(C)=O)C(OC(C)=O)C3OC(C)=O)c2C)cc1 (centres undefined) , GI50 observed: > 100 µM (inactive)

compound "NC(=O)Nc1n[nH]c(-c2ccccc2)n1" , GI50 observed: > 100 µM (inactive)

compound "COC(=O)c1c(C(=O)OC)c2c3ccccc3n(C)c2c2c1c1ccccc1n2C" , GI50 observed: > 100 µM (inactive)

compound Cc1ccc(C)c2c1C1CCCCC3(OCCCO3)C21O (centres undefined) , GI50 observed: > 100 µM (inactive)

* * *

System: SR
Test: NCI tumour cell line growth inhibition, 48 h
Activity calls are given as the source filed them. No stated cut-off is given here; in the data, active = GI50 up to about 1.1 µM and inactive = higher.
readoutKind: GI50

# example entries with known answers
Nc1nc2c(c(=O)[nH]1)C(c1ccc(Cl)cc1)C=C(c1ccccc1)N2 (stereo not given)    19.4 µM (inactive)
COC(=O)c1ccc2c(O)c(O)ccc2c1    2.6 µM (inactive)
O=C1/C(=C/c2ccc3c(c2)OCCO3)CCC/C1=C\c1ccc2c(c1)OCCO2    23.8 µM (inactive)

compound "COC(=O)c1c(C(=O)OC)c2c3ccccc3n(C)c2c2c1c1ccccc1n2C" , GI50 observed: > 100 µM (inactive)

compound CC1(C)CCCCCCC2CC2CCCCCC(C)(C)C1=O (stereo not given) , GI50 observed: 0.787 µM (active)

compound CC(Oc1ccccc1)C(=O)NN (stereo not given) , GI50 observed: > 100 µM (inactive)

compound "Nc1nc(=O)[nH]c2c1cnn2Cc1ccccc1" , GI50 observed: > 100 µM (inactive)

compound CC(=O)OC12c3ccccc3-c3ccccc3C1C(C(=O)O)C2(Cl)C(=O)O (stereo not given) , GI50 observed: > 10 µM (inactive)

compound COc1cc(C2SCC(=O)N2c2ccc(Cl)cc2)cc(I)c1O (stereo not given) , GI50 observed: 3.53 µM (inactive)

* * *

System: SK-MEL-28
Assay: NCI tumour cell line growth inhibition, 48 h
Calls of active or inactive are those of the source. No stated cut-off is given here; in the data, active = GI50 up to about 1.1 µM and inactive = higher.
Tick one outcome: active, inactive

Previously resolved entries follow.
COC1OCC(O)C(NC(=O)N(C)N=O)C1O (stereo unspecified)    inactive
COC(=O)CCC(=O)C(CC(=O)OC)C(=O)CCC(=O)NCCc1ccccc1 (stereo unspecified)    inactive
CC1(C)CCCC2CC2CCC(C)(C)C1=O (stereo unspecified)    inactive

Q. Could you check what this test reported for CCCC(=O)OCC1OC(n2cc(F)c(=O)[nH]c2=O)C(F)C1O (stereo unspecified) ?
A. inactive

Q. Could you check what this test reported for "CN(C)c1n/c(=N/Cc2ccccn2)ss1" ?
A. inactive

Q. Could you check what this test reported for "CCc1c(CN)c(CC)c(CNC2=NCCN2)c(CC)c1CNC1=NCCN1" ?
A. inactive

Q. Could you check what this test reported for "Oc1cccc(-c2cc(=S)ss2)c1" ?
A. inactive

Q. Could you check what this test reported for "Cc1cc(C)c(C(=O)c2no[n+]([O-])c2C(=O)c2c(C)cc(C)c(Br)c2C)c(C)c1Br" ?
A. inactive

* * *

Quick reference: GI50 of the listed items.
Tested on: SF-295
Experiment: NCI tumour cell line growth inhibition, 48 h
The source made the active and inactive calls. Cut-off read from the data, not from the text of the source: active = GI50 up to about 1.1 µM and inactive = higher.

CC(=O)c1ccc(N2C(=O)C3c4[nH]c5ccccc5c4C4CCC(C(C)(C)C)CC4C3C2=O)cc1 (stereo not given)    28.7 µM (inactive)

GI50 of "CC(=O)N1CCN(CCCCN2c3ccccc3Sc3cc(N=[N+]=[N-])ccc32)CC1" , assay on SF-295, is 16.8 µM (inactive)

GI50 of "O=C(CC(=O)c1ccccc1NC1=Cc2ccccc2C(=O)C1=O)C(=O)NC1=C(Cl)C(=O)c2ccccc2C1=O" , assay on SF-295, is 3.87 µM (inactive)

GI50 of "CN(C(=O)c1cccs1)C(=S)N1CCN(c2ccccn2)CC1" , assay on SF-295, is > 100 µM (inactive)

GI50 of "CC(=O)O[C@H]1C[C@H]2C(=S)Nc3ccccc3C(=S)N2C1" , assay on SF-295, is > 100 µM (inactive)

GI50 of "Cc1cc(N(CCC#N)CCC#N)ccc1/C=C(\NC(=O)/C=C/c1ccccc1)C(=O)Nc1ccc(Cl)cc1" , assay on SF-295, is 4.86 µM (inactive)

GI50 of "CC(C)(Oc1ccc(C(=O)c2ccc(Cl)cc2)cc1Cl)C(=O)Nc1c(Cl)cccc1Cl" , assay on SF-295, is > 100 µM (inactive)

GI50 of COC(=O)C(=O)C(C(=O)C(=O)Nc1ccccc1OC)c1nc2ccc([N+](=O)[O-])cc2nc1O (stereo not given) , assay on SF-295, is > 100 µM (inactive)

GI50 of NC1CC(=O)c2csc(Br)c21 (stereo not given) , assay on SF-295, is 35.2 µM (inactive)

GI50 of "C(=C1\CCC/C(=C/c2ccccc2)C1=NNc1ccccc1)/c1ccccc1" , assay on SF-295, is > 100 µM (inactive)

* * *

Quick reference: GI50 of the listed items.
Tested on: NCI-H522
Test: NCI tumour cell line growth inhibition, 48 h
Active and inactive are the calls of the source. No stated cut-off is given here; in the data, active = GI50 up to about 1.1 µM and inactive = higher. Where a SMILES comes first, the peptide text is derived from it. [ ]: non-standard residue; d: D form. The star is where a group is joined. NMeF = CN[C@@H](Cc1ccccc1)C(=O)O; NMeV = CN[C@H](C(=O)O)C(C)C; Boc = CC(C)(C)OC(=O)*; OBn = c1ccc(CO*)cc1

# example entries with known answers
Cc1onc(-c2c(F)cccc2Cl)c1C(=O)N[C@@H]1C(=O)N2[C@@H]1SC(C)(C)[C@@H]2C(=O)O    > 100 µM (inactive)
CC(C)(Oc1ccc(C(=O)c2ccc(Cl)cc2)cc1Cl)C(=O)Nc1c(Cl)cccc1Cl    12.3 µM (inactive)
CCOc1ccc(/C=C2\N=C(c3ccccc3)OC2=O)cc1    48.5 µM (inactive)
COP(=O)(OC)C(=O)N1N(c2ccc([N+](=O)[O-])cc2)C(=O)C(C)NC1(NNc1ccc([N+](=O)[O-])cc1)P(=O)(OC)OC (stereo not drawn)    > 100 µM (inactive)
N#CCCN(C1=NN(C(=O)CC(=O)Nc2ccc(Cl)cc2)C(c2ccccc2)C1)c1ccc(Cl)cc1 (stereo not drawn)    > 100 µM (inactive)

GI50 of "CC(C)c1ccc2nc3ccc(C(=O)NCCN(C)C)cn3c(=O)c2c1" , assay on NCI-H522, is 15.3 µM (inactive)

GI50 of "C(=N\CCCN1CCN(CCC/N=C/c2cccc3ccccc23)CC1)/c1cccc2ccccc12" , assay on NCI-H522, is > 100 µM (inactive)

GI50 of "CC1(C)CCC2=C(O1)/C(=N\Nc1ccc(S(N)(=O)=O)cc1)c1ccccc1C2=O" , assay on NCI-H522, is 12.1 µM (inactive)

GI50 of CC(C)CCC1(O)O[C@H]2C[C@H]3[C@@H]4CCC5CC(=O)C=C[C@]5(C)[C@H]4CC[C@]3(C)[C@H]2[C@@H]1C (stereo partly drawn) , assay on NCI-H522, is 1.8 µM (inactive)

GI50 of "N=C(CC(=O)Nc1ccc(Cl)cc1)Nc1ccccc1" , assay on NCI-H522, is > 100 µM (inactive)

GI50 of C[C@]12CC[C@H](OC3CCCCO3)CC1=CC[C@@H]1C2CC[C@]2(C)/C(=N/O)CCC12 (stereo partly drawn) , assay on NCI-H522, is 16.9 µM (inactive)

GI50 of CC(NNC(=O)c1cc[n+]([BH2-]C#N)cc1)C(F)(F)F (stereo not drawn) , assay on NCI-H522, is > 100 µM (inactive)

GI50 of O=c1[nH]c2c(O)cccc2c2cc3c(c(O)c12)OCO3 [NARCIPRIMINE] , assay on NCI-H522, is 19.3 µM (inactive)

GI50 of CC(Oc1ccccc1)C(=O)NN (stereo not drawn) , assay on NCI-H522, is 79.3 µM (inactive)

GI50 of "CCCCCCCCCCCc1nnc(N)o1" , assay on NCI-H522, is 67 µM (inactive)

GI50 of COc1cc(S(=O)(=O)Nc2nc(-c3ccc(N4C(=O)C(CC(=O)O)SC4c4cccs4)cc3)cs2)ccc1Cl (stereo not drawn) , assay on NCI-H522, is 17.8 µM (inactive)

GI50 of CN1CC2CC(C1)c1cccc(=O)n1C2 (stereo not drawn) , assay on NCI-H522, is > 100 µM (inactive)

GI50 of CC(C)[C@@H](C(=O)N1CCC[C@H]1C(=O)OCc1ccccc1)N(C)C(=O)[C@H](C(C)C)N(C)C(=O)[C@H](Cc1ccccc1)N(C)C(=O)[C@H](NC(=O)OC(C)(C)C)C(C)C (Boc-[dV][NMeF][NMeV][NMeV]P-OBn) , assay on NCI-H522, is > 50 µM (inactive)

GI50 of COC(=O)[C@H](Cc1ccccc1)NP(=O)(OCCC#N)OCC1OC(n2cc(C)c(=O)[nH]c2=O)CC1N=[N+]=[N-] (stereo partly drawn) , assay on NCI-H522, is 35 µM (inactive)

GI50 of "CC(=O)c1c(CO[N+](=O)[O-])[n+]([O-])c2ccccc2[n+]1[O-]" , assay on NCI-H522, is 31.8 µM (inactive)

GI50 of "O=P1(c2ccccc2)CCCCC1" , assay on NCI-H522, is > 10 µM (inactive)

GI50 of "NN(CC(=O)O)CC(=O)O" , assay on NCI-H522, is > 100 µM (inactive)

The measurements presented in this section are drawn from ChEMBL document CHEMBL1201862.
